The measurements presented in this section are drawn from patent US20160280736A1.

biological target: HDAC7 (Homo sapiens); assay: HDAC biochemical activity measurement (fluorescent substrate deacetylation); details: HDAC7 enzyme, 37°, 30 minutes
Sequence (Q8WUI4 whole entry): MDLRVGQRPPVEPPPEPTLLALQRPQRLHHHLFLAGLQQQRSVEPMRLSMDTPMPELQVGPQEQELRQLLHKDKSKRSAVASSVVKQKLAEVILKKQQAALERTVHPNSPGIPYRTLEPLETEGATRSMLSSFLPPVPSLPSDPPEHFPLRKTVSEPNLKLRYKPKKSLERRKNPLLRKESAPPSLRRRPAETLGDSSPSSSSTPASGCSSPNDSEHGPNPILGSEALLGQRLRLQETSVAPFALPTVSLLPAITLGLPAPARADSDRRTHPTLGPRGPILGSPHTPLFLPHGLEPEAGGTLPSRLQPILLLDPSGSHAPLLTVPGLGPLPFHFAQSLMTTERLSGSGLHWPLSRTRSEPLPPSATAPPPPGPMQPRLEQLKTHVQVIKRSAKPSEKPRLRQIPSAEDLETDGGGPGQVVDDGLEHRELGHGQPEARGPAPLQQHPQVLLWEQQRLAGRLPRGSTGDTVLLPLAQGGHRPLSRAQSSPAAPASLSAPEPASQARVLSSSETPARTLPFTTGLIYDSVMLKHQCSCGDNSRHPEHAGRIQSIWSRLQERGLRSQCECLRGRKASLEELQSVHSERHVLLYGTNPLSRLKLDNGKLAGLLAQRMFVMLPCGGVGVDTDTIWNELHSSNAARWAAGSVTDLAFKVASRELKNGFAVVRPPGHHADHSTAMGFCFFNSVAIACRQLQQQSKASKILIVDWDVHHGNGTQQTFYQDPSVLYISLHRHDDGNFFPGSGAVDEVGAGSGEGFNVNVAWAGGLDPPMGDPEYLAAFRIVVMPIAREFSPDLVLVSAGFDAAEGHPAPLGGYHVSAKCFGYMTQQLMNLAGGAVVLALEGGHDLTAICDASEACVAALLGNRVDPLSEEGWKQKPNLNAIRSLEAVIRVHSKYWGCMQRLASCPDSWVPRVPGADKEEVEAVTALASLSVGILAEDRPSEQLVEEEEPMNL
measurement_label: IC50 (μM) HDAC7

C/C=C1\NC(=O)c2cc(SC)cc(n2)CNC(=O)C[C@@H](/C=C/CCSC(C)=O)OC(=O)[C@H](C(C)C)NC1=O : no activity
C/C=C1\NC(=O)c2ncc(SC)c(n2)CNC(=O)C[C@@H](/C=C/CCSC(C)=O)OC(=O)[C@H](C(C)C)NC1=O : no activity
C/C=C1\NC(=O)c2nc(F)cc(n2)CNC(=O)C[C@@H](/C=C/CCSC(C)=O)OC(=O)[C@H](C(C)C)NC1=O : no activity
C/C=C1\NC(=O)c2nc(cc(SC)n2)CNC(=O)C[C@@H](/C=C/CCSC(C)=O)OC(=O)[C@H](C(C)C)NC1=O : no activity

----------
Biological target: HDAC8 (Homo sapiens)
Sequence (Q9BY41 1-377): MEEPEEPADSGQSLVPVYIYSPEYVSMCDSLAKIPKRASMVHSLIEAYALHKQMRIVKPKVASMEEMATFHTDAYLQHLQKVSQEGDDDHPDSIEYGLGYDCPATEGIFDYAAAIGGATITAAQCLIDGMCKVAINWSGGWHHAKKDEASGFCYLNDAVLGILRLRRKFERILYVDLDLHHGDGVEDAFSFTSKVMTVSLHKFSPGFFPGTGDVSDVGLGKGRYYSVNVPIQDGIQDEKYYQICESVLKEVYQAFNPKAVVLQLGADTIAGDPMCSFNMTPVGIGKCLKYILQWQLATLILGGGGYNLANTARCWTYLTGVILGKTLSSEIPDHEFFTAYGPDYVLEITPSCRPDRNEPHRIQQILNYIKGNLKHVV
Assay: HDAC biochemical activity measurement (fluorescent substrate deacetylation)
Details: HDAC8 enzyme, 37°, 30 minutes
measurement_label: IC50 (µM)

(P) C/C=C1\NC(=O)c2cc(SC)cc(n2)CNC(=O)C[C@@H](/C=C/CCSC(=O)CCCC)OC(=O)[C@H](C(C)C)NC1=O [Compound 157]
(Q) C/C=C1\NC(=O)c2ccc(SC)c(n2)CNC(=O)C[C@@H](/C=C/CCSC(=O)CCCC)OC(=O)[C@H](C(C)C)NC1=O [Compound 158]
(R) C/C=C1\NC(=O)c2ccc(SC)c(n2)CNC(=O)C[C@@H](/C=C/CCSC(=O)CCC)OC(=O)[C@H](C(C)C)NC1=O [Compound 161]
From the records above, write out the order of decreasing IC50. Field: ranking. Enter the labels in the order requested.
R, Q, P
(R: 0.062 µM, Q: 0.043 µM, P: 0.027 µM)

----------
molecular target: HDAC1 (Homo sapiens, UniProt Q13547); test: HDAC biochemical activity measurement (fluorescent substrate deacetylation); settings: HDAC1 enzyme, 37°, 30 minutes
Sequence (Q13547 whole entry, species assumed): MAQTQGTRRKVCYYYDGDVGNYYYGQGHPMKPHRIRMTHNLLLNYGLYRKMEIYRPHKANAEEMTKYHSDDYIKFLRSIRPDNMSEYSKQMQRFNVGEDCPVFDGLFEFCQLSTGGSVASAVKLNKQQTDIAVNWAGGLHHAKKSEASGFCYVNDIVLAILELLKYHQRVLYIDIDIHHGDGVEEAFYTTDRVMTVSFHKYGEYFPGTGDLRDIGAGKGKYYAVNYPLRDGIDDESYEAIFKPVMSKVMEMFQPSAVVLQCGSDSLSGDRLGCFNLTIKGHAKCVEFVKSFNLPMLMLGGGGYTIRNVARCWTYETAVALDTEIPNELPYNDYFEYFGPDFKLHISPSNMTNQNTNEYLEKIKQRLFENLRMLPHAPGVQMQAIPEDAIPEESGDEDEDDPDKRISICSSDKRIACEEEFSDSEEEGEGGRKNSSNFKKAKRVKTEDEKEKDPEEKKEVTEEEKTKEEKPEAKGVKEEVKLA
measurement_label: IC50 (µM)

C/C=C1\NC(=O)c2ccc(SC)c(n2)CNC(=O)C[C@@H](/C=C/CCSC(=O)CCCC)OC(=O)[C@H](C(C)C)NC1=O : 0.081
C/C=C1\NC(=O)c2ccc(SC)c(n2)CNC(=O)C[C@@H](/C=C/CCSC(=O)CCC)OC(=O)[C@H](C(C)C)NC1=O : 0.061
C/C=C1\NC(=O)c2cc(SC)cc(n2)CNC(=O)C[C@@H](/C=C/CCSC(=O)CCCC)OC(=O)[C@H](C(C)C)NC1=O : 0.082

----------
test system: N-87 (human gastric cancer cells)
measurement_label: GI50 (nM)

Some solved cases for reference:
C/C=C1\NC(=O)c2cc(F)cc(n2)CNC(=O)C[C@@H](/C=C/CCSC(C)=O)OC(=O)[C@H](C(C)C)NC1=O : 73
C/C=C1\NC(=O)c2ccc(F)c(n2)CNC(=O)C[C@@H](/C=C/CCSC(C)=O)OC(=O)[C@H](C(C)C)NC1=O [Compound 95] : 23

(A) C/C=C1\NC(=O)c2ccc(F)c(n2)CNC(=O)C[C@@H](/C=C/CCSC(C)=O)OC(=O)[C@H](C(C)C)NC1=O (single isomer, unassigned) [Example 50]
(B) C/C=C1\NC(=O)c2nc(ccc2F)CNC(=O)C[C@@H](/C=C/CCSC(C)=O)OC(=O)[C@H](C(C)C)NC1=O
Between the two listed entries A and B , which has its GI50 at the higher number? Mark your selection by writing its label.
A
